METHOD_DESCRIPTION: Photostability assessed as residual absorbance at 2.5 mW/cm2 irradiation for 45 mins
Assay type: physicochemical
ASSAY_CONTEXT: read-out: Stability
REPORTED_PROPERTY: remaining at 0.75 h (%)

Which remaining at 0.75 h value belongs to "C=CC1=C(C)c2cc3[nH]c(cc4nc(cc5[nH]c(cc1n2)c(C)c5CCC(=O)NCCCCC(=O)N(CCCN)CCCCN)C(CCC(=O)NCCCCC(=O)N(CCCN)CCCCN)=C4C)c(C)c3C=C" ? 98

Reported remaining at 0.75 h, compound "NCCCCN(CCCN)C(=O)CCCCNC(=O)c1ccc(-c2c3nc(c(-c4ccc(C(=O)NCCCCC(=O)N(CCCN)CCCCN)cc4)c4ccc([nH]4)c(-c4ccc(C(=O)NCCCCC(=O)N(CCCN)CCCCN)cc4)c4nc(c(-c5ccc(C(=O)NCCCCC(=O)N(CCCN)CCCCN)cc5)c5ccc2[nH]5)C=C4)C=C3)cc1" : ____ 98

// query remaining at 0.75 h value for entry "Cc1cc(C)c(-c2c3nc(c(-c4ccc(C(=O)NCCCCC(=O)N(CCCN)CCCCNCCCN)cc4)c4ccc([nH]4)c(-c4c(C)cc(C)cc4C)c4nc(c(-c5ccc(C(=O)NCCCCC(=O)N(CCCN)CCCCNCCCN)cc5)c5ccc2[nH]5)C=C4)C=C3)c(C)c1" 99

Using the record for "Cc1cc(C)c(-c2c3nc(c(-c4ccc(C(=O)NCCCCC(=O)N(CCCN)CCCCN)cc4)c4ccc([nH]4)c(-c4c(C)cc(C)cc4C)c4nc(c(-c5ccc(C(=O)NCCCCC(=O)N(CCCN)CCCCN)cc5)c5ccc2[nH]5)C=C4)C=C3)c(C)c1" , report its remaining at 0.75 h. 100

Give the measured remaining at 0.75 h of "C=CC1=C(C)c2cc3[nH]c(cc4nc(cc5[nH]c(cc1n2)c(C)c5CCC(=O)NCCCCC(=O)N(CCCN)CCCCNCCCN)C(CCC(=O)NCCCCC(=O)N(CCCN)CCCCNCCCN)=C4C)c(C)c3C=C" . 100

What does the data say about its remaining at 0.75 h? Entry: "NCCCNCCCCN(CCCN)C(=O)CCCCNC(=O)c1ccc(-c2c3nc(c(-c4ccc(C(=O)NCCCCC(=O)N(CCCN)CCCCNCCCN)cc4)c4ccc([nH]4)c(-c4ccc(C(=O)NCCCCC(=O)N(CCCN)CCCCNCCCN)cc4)c4nc(c(-c5ccc(C(=O)NCCCCC(=O)N(CCCN)CCCCNCCCN)cc5)c5ccc2[nH]5)C=C4)C=C3)cc1" 99

====

Test system: Escherichia coli
METHOD_DESCRIPTION: Induction of DNA photocleavage activity in Escherichia coli pBR322 plasmid assessed as nicked DNA form at 10 uM after 120 mins irradiation at 2.5 mW/cm2 by gel electrophoresis
REPORTED_PROPERTY: Activity (%)

Recorded results for 4 compounds are shown here.
Query (compound): "NCCCCN(CCCN)C(=O)CCCCNC(=O)c1ccc(-c2c3nc(c(-c4ccc(C(=O)NCCCCC(=O)N(CCCN)CCCCN)cc4)c4ccc([nH]4)c(-c4ccc(C(=O)NCCCCC(=O)N(CCCN)CCCCN)cc4)c4nc(c(-c5ccc(C(=O)NCCCCC(=O)N(CCCN)CCCCN)cc5)c5ccc2[nH]5)C=C4)C=C3)cc1" ; field requested: Activity 51

Need Activity of "C=CC1=C(C)c2cc3[nH]c(cc4nc(cc5[nH]c(cc1n2)c(C)c5CCC(=O)NCCCCC(=O)N(CCCN)CCCCN)C(CCC(=O)NCCCCC(=O)N(CCCN)CCCCN)=C4C)c(C)c3C=C" , thanks. 90

Dear colleague, I am looking for the recorded Activity of the following compound: "NCCCNCCCCN(CCCN)C(=O)CCCCNC(=O)c1ccc(-c2c3nc(c(-c4ccc(C(=O)NCCCCC(=O)N(CCCN)CCCCNCCCN)cc4)c4ccc([nH]4)c(-c4ccc(C(=O)NCCCCC(=O)N(CCCN)CCCCNCCCN)cc4)c4nc(c(-c5ccc(C(=O)NCCCCC(=O)N(CCCN)CCCCNCCCN)cc5)c5ccc2[nH]5)C=C4)C=C3)cc1" 75

Look up Activity: "Cc1cc(C)c(-c2c3nc(c(-c4ccc(C(=O)NCCCCC(=O)N(CCCN)CCCCNCCCN)cc4)c4ccc([nH]4)c(-c4c(C)cc(C)cc4C)c4nc(c(-c5ccc(C(=O)NCCCCC(=O)N(CCCN)CCCCNCCCN)cc5)c5ccc2[nH]5)C=C4)C=C3)c(C)c1" 29

I. C=CC1=C(C)c2cc3[nH]c(cc4nc(cc5[nH]c(cc1n2)c(C)c5CCC(=O)NCCCCC(=O)N(CCCN)CCCCNCCCN)C(CCC(=O)NCCCCC(=O)N(CCCN)CCCCNCCCN)=C4C)c(C)c3C=C
II. Cc1cc(C)c(-c2c3nc(c(-c4ccc(C(=O)NCCCCC(=O)N(CCCN)CCCCN)cc4)c4ccc([nH]4)c(-c4c(C)cc(C)cc4C)c4nc(c(-c5ccc(C(=O)NCCCCC(=O)N(CCCN)CCCCN)cc5)c5ccc2[nH]5)C=C4)C=C3)c(C)c1
Given I and II , report the one with the higher recorded Activity. // caller expects the label of the chosen entry I

Values compiled from ChEMBL document CHEMBL1140875.
